Values compiled from patent US6525001B1.

Test system: cocklebur (Xanthium strumarium)
assay name: Test B pre-/postemergence
Type: in vivo
Parameters: key: 0 is no effect; 10 is complete control
run parameters: Rate 250 g/ha, Postemergence
I would appreciate it if you labelled entries Fulfilled when Plant response rating, Cocklebur is 8 or higher, otherwise Not fulfilled.

### Prompt Hi, just wondering whether Cc1cnc(-c2cccc(C(F)(F)F)c2)nc1Cc1cccc(C(F)(F)F)c1 shows Plant response rating, Cocklebur of 8 or higher.
### Response Fulfilled

### Prompt Hi, just wondering whether Cc1cnc(-c2ccc(F)c(Cl)c2)nc1Cc1cccc(C(F)(F)F)c1 shows Plant response rating, Cocklebur of 8 or higher.
### Response Fulfilled

### Prompt Hi, just wondering whether Cc1cnc(-n2ccc(C(F)(F)F)n2)nc1C(=O)c1cccc(C(F)(F)F)c1 shows Plant response rating, Cocklebur of 8 or higher.
### Response Not fulfilled

### Prompt Hi, just wondering whether Cc1cnc(-c2ccc(C(F)(F)F)cc2)nc1Cn1ccc(C(F)(F)F)n1 shows Plant response rating, Cocklebur of 8 or higher.
### Response Fulfilled

### Prompt Hi, just wondering whether Cc1cnc(-c2ccc(C#N)cc2)nc1Cc1cccc(C#N)c1 shows Plant response rating, Cocklebur of 8 or higher.
### Response Not fulfilled

### Prompt Hi, just wondering whether Cc1cnc(-c2ccc(C(F)(F)F)cc2)nc1Cn1cnc(C(F)(F)F)n1 shows Plant response rating, Cocklebur of 8 or higher.
### Response Fulfilled

### Prompt Hi, just wondering whether COc1cnc(-c2ccc(C(F)(F)F)cc2)nc1Cc1cccc(C(F)(F)F)c1 shows Plant response rating, Cocklebur of 8 or higher.
### Response Fulfilled

### Prompt Hi, just wondering whether CCc1cnc(-n2cnc(C(F)(F)F)c2)nc1Cc1cccc(OC(F)(F)F)c1 shows Plant response rating, Cocklebur of 8 or higher.
### Response Fulfilled

### Prompt Hi, just wondering whether Cc1cnc(-c2ccc(Cl)c(Cl)c2)nc1Cc1cccc(C(F)(F)F)c1 shows Plant response rating, Cocklebur of 8 or higher.
### Response Fulfilled

### Prompt Hi, just wondering whether COc1cnc(-n2ccc(C(F)(F)F)n2)nc1Cc1cccc(C(F)(F)F)c1 shows Plant response rating, Cocklebur of 8 or higher.
### Response Not fulfilled

### Prompt Hi, just wondering whether Cc1cnc(-c2ccc(C(F)(F)F)cc2)nc1C(=O)c1cccc(C(F)(F)F)c1 shows Plant response rating, Cocklebur of 8 or higher.
### Response Fulfilled

### Prompt Hi, just wondering whether Cc1cnc(-c2ccccc2F)nc1Cc1cccc(C#N)c1 shows Plant response rating, Cocklebur of 8 or higher.
### Response Not fulfilled
